- target_system: Dual specificity tyrosine-phosphorylation-regulated kinase 1A (Homo sapiens, UniProt Q13627)
- protocol_details: Inhibition of DYRK1A (unknown origin) using Ulight-MBP as substrate and ATP as co-substrate incubated for 40 mins and measured after 1 hr by TR-FRET assay
pIC50: −log10 of the molar value.
I would appreciate it if you labelled entries true (1) when pIC50 is 7 or higher, otherwise false (0).

>>> print(df.to_string())
                                        smi  category_label
0  Cc1nc2ccc(-c3cc(N)nc(N)c3)nc2n1C[C@H](C)Oc1ccccc1        true (1)
1                COc1cc(-c2ccnc(N)c2)ccc1Cl       false (0)
2              Nc1cc(-c2ccc3nccn3c2)cc(N)n1        true (1)
3              Nc1cc(-c2ccc3ncoc3c2)cc(N)n1        true (1)
4           Nc1cc(-c2ccc3c(c2)OCCO3)cc(N)n1        true (1)
5              Nc1cc(-c2ccc3occc3c2)cc(N)n1        true (1)
6                  COc1ccc(-c2ccnc(C)c2)cc1       false (0)
7         Nc1cc(-c2ccc3occc(=O)c3c2)cc(N)n1        true (1)
8          Cc1oc2ccc(-c3cc(N)nc(N)c3)cc2c1C        true (1)
9                  c1cc(-c2ccc3occc3c2)ccn1       false (0)

====

Measured pIC50 accompanies every entry in the list below.
- target_system: Cyclin-dependent kinase 9 (Homo sapiens)
- Sequence (P50750 whole entry): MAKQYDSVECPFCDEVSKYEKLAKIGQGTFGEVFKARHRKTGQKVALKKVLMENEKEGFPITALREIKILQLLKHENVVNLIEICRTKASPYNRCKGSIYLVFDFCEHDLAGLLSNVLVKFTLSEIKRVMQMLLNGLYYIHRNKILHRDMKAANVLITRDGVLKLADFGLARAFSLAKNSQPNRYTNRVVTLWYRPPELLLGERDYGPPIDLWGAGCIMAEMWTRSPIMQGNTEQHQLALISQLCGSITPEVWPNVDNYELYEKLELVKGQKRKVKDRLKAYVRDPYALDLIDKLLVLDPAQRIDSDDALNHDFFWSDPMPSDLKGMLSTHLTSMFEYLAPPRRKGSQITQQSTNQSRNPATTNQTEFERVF
pIC50: −log10 of the molar value.
measured_property: pIC50

In [3]: df
Out[3]:
                                        smi  value_prefix  measured_value
0  Cc1nc2ccc(-c3cc(N)nc(N)c3)nc2n1CCOc1cccc(Cl)n1             =            6.65
1              Nc1cc(-c2ccc3occc3c2)cc(N)n1             =            7.39
2  Cc1nc2ccc(-c3cc(N)nc(N)c3)nc2n1C[C@H](C)Oc1ccccc1             <            5.52
3  Cc1nc2ccc(-c3cc(N)nc(N)c3)nc2n1C[C@@H](C)Oc1ccccc1             <            5.52

====

- target_system: Dual specificity tyrosine-phosphorylation-regulated kinase 1A (Homo sapiens)
- protocol_details: Inhibition of DYRK1A (unknown origin) using Ulight-MBP as substrate and ATP as co-substrate incubated for 40 mins and measured after 1 hr by TR-FRET assay
Examples of compounds with documented IC50 follow.
measured_property: IC50 (nM)

>>> print(df.to_string())
                                         smi                             target_system  measured_property  measured_value
 0              Nc1cc(-c2ccc3occc3c2)nc(N)n1  Dual specificity tyrosine-phosphorylation-regulated kinase 1A (Homo sapiens)               IC50              36
 1              Nc1cc(-c2ccn3nccc3n2)cc(N)n1  Dual specificity tyrosine-phosphorylation-regulated kinase 1A (Homo sapiens)               IC50               2
 2              Nc1cc(-c2ccc3ncsc3c2)cc(N)n1  Dual specificity tyrosine-phosphorylation-regulated kinase 1A (Homo sapiens)               IC50               1
 3           Cn1cnc2ccc(-c3cc(N)nc(N)c3)nc21  Dual specificity tyrosine-phosphorylation-regulated kinase 1A (Homo sapiens)               IC50              13
 4              Nc1cc(-c2ccc3occc3n2)cc(N)n1  Dual specificity tyrosine-phosphorylation-regulated kinase 1A (Homo sapiens)               IC50              10
 5     Nc1cc(-c2ccc3occc3c2)cc(NCCc2ccsc2)n1  Dual specificity tyrosine-phosphorylation-regulated kinase 1A (Homo sapiens)               IC50             189
 6                 Nc1cc(-c2ccc3occc3c2)ccn1  Dual specificity tyrosine-phosphorylation-regulated kinase 1A (Homo sapiens)               IC50              19
 7           Cn1cnc2cc(-c3cc(N)nc(N)c3)ccc21  Dual specificity tyrosine-phosphorylation-regulated kinase 1A (Homo sapiens)               IC50              14
 8  Cc1nc2ccc(-c3cc(N)nc(N)c3)nc2n1C[C@@H](C)Oc1ccccn1  Dual specificity tyrosine-phosphorylation-regulated kinase 1A (Homo sapiens)               IC50               7
 9  Cc1nc2ccc(-c3cc(N)nc(N)c3)nc2n1C[C@@H](C)Oc1cccc(Br)n1  Dual specificity tyrosine-phosphorylation-regulated kinase 1A (Homo sapiens)               IC50               5
10              Nc1cc(-c2ccc3ncnn3c2)cc(N)n1  Dual specificity tyrosine-phosphorylation-regulated kinase 1A (Homo sapiens)               IC50              15
11          Nc1cc(-c2ccc3oc(Cl)cc3c2)cc(N)n1  Dual specificity tyrosine-phosphorylation-regulated kinase 1A (Homo sapiens)               IC50              76
